Numbers sourced from PubChem BioAssay (NCI).

Some molecules, each annotated with its measured growth inhibition.
assay: NCI Yeast Anticancer Drug Screen. Data for the cln2 rad14 strain (AID 165);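 further: 0% = growth equal to vehicle treated cultures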; settings: S. cerevisiae cln2 rad14 strain, at 50.0 µM, stronger effect = higher value
About 79,000 compounds went through this panel and 15% of them were active in at least one assay; those are over-represented in the sample as a whole.
Write down the numeric answer in % and omit the unit.

Some entries whose results are on file:
[[record]]
molecule = "COC1=CC(=O)N/C1=C(\\OC)c1ccccc1"
units_text = "%"
observed_result = -5.6

[[record]]
molecule = "O=[N+]([O-])c1ccc(/C=C/[P+](c2ccccc2)(c2ccccc2)c2ccccc2)o1"
units_text = "%"
observed_result = 83.5

[[record]]
molecule = "CCCCCCCCCCCCCCCCSC(=N)N"
units_text = "%"
observed_result = 14.1

[[record]]
molecule = "Cc1ccc[n+](CCCCCCCC[n+]2cccc(C)c2)c1"
units_text = "%"
observed_result = -2.25

[[record]]
molecule = "Nc1cc(Cl)c(I)c(Cl)c1"
units_text = "%"
observed_result = 10.2

[[record]]
molecule = "CCC(Cl)COP(=O)(CC(Cl)CC)OC(C)P(=O)(OCC(Cl)CC)OCC(Cl)CC (stereo unspecified)"
units_text = "%"
observed_result = 97.5

[[record]]
molecule = "CC(=O)CC(C)=NCCCCN=C(C)CC(C)=O"
units_text = "%"
observed_result = 5.35

[[record]]
molecule = "Cc1ccc(S(=O)(=O)NN=C2CC3C4CCC5C4CC3C25)cc1 (stereo unspecified)"
units_text = "%"
observed_result = 12


So for O=C(O)C(O)c1c[nH]c2ccccc12 (stereo unspecified) , the logged growth inhibition turned out to be -1.25

// growth inhibition lookup, molecule = COc1ccc(C2=CCCCc3cc(O)c(OC)cc32)cc1 , result: 79.8

GET /value?item= S=C(/C=C1\SC(=Nc2ccccc2)C(=Nc2ccccc2)N1c1ccccc1)Nc1ccccc1 &field=growth inhibition returns -4.1

Note to self: growth inhibition recorded for CC1(C)COC(c2ccc3ccccc3c2)OC1 was -21.9

// CCCC(=O)OC(C)CC(C)C (stereo unspecified) : growth inhibition value = -10.8

Given item Cc1ccccc1/C=N\NC(=O)CCCC(=O)N/N=C/c1ccccc1C , the value recorded as its growth inhibition is 8.7

Form field growth inhibition, entry C=CCNc1ccc(Cl)cc1Cl : -54.4

Measured growth inhibition, C/C=C(\C)C(=O)OCC1=CCC2CCC(O)N12 (stereo unspecified) : 6.05

Noted for CCCNC(=O)Nc1ccc(OC)cc1Cl : its growth inhibition reads -59.3

Reported growth inhibition of CC(C)(C)C1COC(c2ccccc2)(c2ccccc2)C1 (stereo unspecified) : -26.5
